# system tested: 5HT2C receptors (Homo sapiens, UniProt P28335)
# Sequence (P28335 33-458): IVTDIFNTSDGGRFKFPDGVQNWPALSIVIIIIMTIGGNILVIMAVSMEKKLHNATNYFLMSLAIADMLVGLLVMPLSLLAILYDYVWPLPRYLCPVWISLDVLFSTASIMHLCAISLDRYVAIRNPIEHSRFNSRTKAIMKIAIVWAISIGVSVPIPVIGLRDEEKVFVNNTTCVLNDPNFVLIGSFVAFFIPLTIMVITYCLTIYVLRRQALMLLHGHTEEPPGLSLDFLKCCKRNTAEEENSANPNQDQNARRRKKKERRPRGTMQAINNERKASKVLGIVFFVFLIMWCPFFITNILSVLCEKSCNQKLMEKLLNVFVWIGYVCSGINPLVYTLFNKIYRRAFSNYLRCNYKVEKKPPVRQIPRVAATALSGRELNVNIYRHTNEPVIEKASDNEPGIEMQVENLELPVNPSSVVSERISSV
# test summary: Human 5-HT2C functional high throughput screening assay in CHO-K1 cells (calcium flux)
# Format: cell-based
# Parameters: expressed in transfected cells; host or cells: CHO-K1 cells
# experimental context: CHO-K1; 5-HT2C; maximum functional response as percentage relative to the effect of serotonin
The entries below are paired with their reported Emax.
reported metric: Emax

                                   compound                             system_tested  assay_result
0     CN1C[C@@H]2CNC(=O)c3cc(O)ccc3[C@H]2C1  5HT2C receptors (Homo sapiens, UniProt P28335)           55%
1  CN1C[C@H]2CNC(=O)c3c(OC(F)(F)F)cccc3[C@@H]2C1 [Example 112]  5HT2C receptors (Homo sapiens, UniProt P28335)           90%
2  CN1C[C@H]2CNC(=O)c3cccc(F)c3[C@@H]2C1 (relative stereo)  5HT2C receptors (Homo sapiens, UniProt P28335)        > 120%
3  c1cc(-c2ccncc2)c2c(c1)[C@H]1CNC[C@@H]1CCO2 (relative stereo)  5HT2C receptors (Homo sapiens, UniProt P28335)           90%
4  COc1ccc(-c2ccc3c(c2)C(=O)NC[C@H]2CN(C)C[C@H]32)cn1  5HT2C receptors (Homo sapiens, UniProt P28335)           90%
5  Fc1ccc2c(c1)[C@H]1CNC[C@@H]1CCO2 (relative stereo)  5HT2C receptors (Homo sapiens, UniProt P28335)           90%
6  Cc1ccc2c(c1)[C@H]1CNC[C@@H]1CCO2 (relative stereo)  5HT2C receptors (Homo sapiens, UniProt P28335)           80%
7  CC(C)=Cc1ccc2c(c1)C(=O)NC[C@@H]1CN(C)C[C@@H]21 (relative stereo)  5HT2C receptors (Homo sapiens, UniProt P28335)        > 120%

Origin of measurements: patent US8846951B2
